B1: library; a variant is named by its letters at N, in order (parent)
chain: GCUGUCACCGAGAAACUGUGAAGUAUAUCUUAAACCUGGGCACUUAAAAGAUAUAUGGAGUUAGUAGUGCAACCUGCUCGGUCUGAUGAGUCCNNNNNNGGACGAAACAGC

Variants of: B1
procedureText: normalized RNA/DNA level without ligand (relative to sTRSVctl = 100) (log10 (% of sTRSVctl)); HEK293T; ligand: cyclic di-GMP (c-di-GMP-II aptamer); higher = less ribozyme self-cleavage, higher mRNA level
conditionDescription: reporter: mCherry (pCS4076), ligand present: no
Below, each entry is listed with its recorded normalized RNA/DNA level without ligand (log10).
assayEndpoint: normalized RNA/DNA level without ligand (log10)

- variantDesignation: "CGAGGA"
  quantitativeReadout: 1.54
- variantDesignation: "CGGAGG"
  quantitativeReadout: 1.62
- variantDesignation: "CCUAGG"
  quantitativeReadout: 1.79
- variantDesignation: "UCCGAA"
  quantitativeReadout: 1.48
- variantDesignation: "GUUUCU"
  quantitativeReadout: 1.71
- variantDesignation: "GCUAGA"
  quantitativeReadout: 1.49
- variantDesignation: "AAAAGG"
  quantitativeReadout: 1.49
